Kindly state half-life for each of the entries shown.
- assay name: Pharmacokinetic data at 0.5 mg/kg dose given to dogs intravenously.
- Format: ADME, organism-based, Canis lupus familiaris
- Set-up: dose 0.5 mg/kg, route intravenous
- assay setup: dog, in vivo, iv
Write the value in min as a bare number.

## Input Look up half-life for this compound: N#Cc1ccc2cc1Oc1ccc3c(c1)[C@@H](CCC3)N1CC[C@@H](NCc3cncn3C2)C1=O
## Output 28.8

## Input Look up half-life for this compound: N#Cc1ccc2cc1Oc1ccc3c(c1)[C@H](CC3)N1CC[C@@H](NCc3cncn3C2)C1=O
## Output 252

## Input Look up half-life for this compound: N#Cc1ccc2cc1Oc1cccc(c1)-c1ccccc1N1CCC(NCc3cncn3C2)C1=O (stereo not drawn)
## Output 52.8
